Data provenance: patent US20220195070A1

biological target: Anti-hC5 Antibody; assay: sandwich ELISA: SKA antibody coated, Anti-hC5 Antibody in pooled human serum; OD spiked / OD blank
Sequence (constant, as listed by the source limits assumed): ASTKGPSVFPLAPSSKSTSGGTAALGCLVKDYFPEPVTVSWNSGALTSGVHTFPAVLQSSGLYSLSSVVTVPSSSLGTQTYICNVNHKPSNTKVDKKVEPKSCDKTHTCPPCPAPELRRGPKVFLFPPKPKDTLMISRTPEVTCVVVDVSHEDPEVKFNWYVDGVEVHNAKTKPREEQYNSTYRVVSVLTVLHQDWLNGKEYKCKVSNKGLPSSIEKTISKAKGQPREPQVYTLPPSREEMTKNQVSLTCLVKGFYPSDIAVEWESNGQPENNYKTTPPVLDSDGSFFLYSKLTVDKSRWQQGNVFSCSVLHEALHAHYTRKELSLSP
// reported Signal to noise ratio per item
No unit in the answer, only the number.

Consider the worked cases shown below.
binder	Signal to noise ratio
SKA0046 (antibody, V domains shown) VH: QEQLVESGGGLVQPEGSLTLTCTASGFSLSSSNYMWWVRQAPGKGLEWIACIHASSSGDTYYANWAKGRFTISKTSSTTVTLQMTSLTAADTATYFCARGGYIYGDGGYNGVAGFSLWGPGTLVTVSS VL: DVVMTQTPASVSEPVGGTVTIKCQASETIGNALAWYQQKPGQRPKLLIYGASNLESGVPSRFKGSGSGTEFTLTISDVQCDDAATYYCQSIYYSSSADTFFFPFGGGTEVVVKG	2.3
SKA0171 (antibody, V domains shown) VH: QSLEESGGGLVQPEGSLTLSCTASGFSFSSSYYMCWVRQAPGKGLEWIACIYGGNSVITYYANWAKGRFTISETSSTTVTLQMTSLTAADTATYFCAREVHYDYLYTTYGYANLWGPGTLVTVSS VL: AIKMTQTPASVSAVVGGTVTINCQASETIYSGLAWYQQKPGQPPKLLIYDTANLETGVSSRFKGSGSGTEYTLTISDLECDDAATYFCLYAYYSGGSADNAFGGGTEVVVKG	4

**Q:** Entry SKA0028 (antibody, V domains shown) VH: QSVEESGGRLVTPGTPLTLTCTASGFTISSYHMSWVRQAPGKGLEWIGIIHGSGNMWYASWAKGRFTISRTSTTVDLEITSPTTEDTATYFCARIRFWASSNYYYFYLWGQGTLVTVSS VL: ALVMTQTPASVSEPVGGTVTINCQASQNIYSNLAWYQQKPGQRPRLLIYGASNLESGVPSRFRGSGSGTEFTLTISDLECADAATYYCQSAYWGNNNDGAFGGGTEVVVKG has what Signal to noise ratio?
**A:** 3
